The reported measurements were obtained from patent US12624112.

target: Human ST2-fc (human) (UniProt Q01638); assay: competition ELISA, coated ST2-fc, competitor IL33-his
ENDPOINT: Relative activity compared with CNTO7160 (%)
Return type: number; implicit unit %.

BINDER: 5888-153-H0L1 (antibody, human IgG4 S228P, kappa, V domains shown, Humanized antibody) VH: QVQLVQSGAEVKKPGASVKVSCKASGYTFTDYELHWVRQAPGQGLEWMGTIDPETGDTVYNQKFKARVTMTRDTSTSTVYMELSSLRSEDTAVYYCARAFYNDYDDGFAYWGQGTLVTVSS VL: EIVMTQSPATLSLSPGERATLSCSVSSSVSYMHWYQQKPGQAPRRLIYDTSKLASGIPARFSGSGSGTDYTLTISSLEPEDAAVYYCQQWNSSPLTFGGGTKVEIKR
Relative activity compared with CNTO7160 / %: 380

// fetch Relative activity compared with CNTO7160 given entry 5888-357-H1L1 (antibody, human IgG4 S228P, kappa, V domains shown) VH: QVQLVQSGAEVKKPGASVKVSCKASGYRFTDSEMHWVRQAPGQGLEWMGTIDPETGGTVYNQKFKGRVTMTADRSTSTVYMELSSLRSEDTAVYYCTRAFYNDFDDGFAYWGQGTMVTVSS VL: EIVMTQSPATLSLSPGERATLSCSASTSVSYMHWYQQKPGQAPRRLIYDTSKLASGIPARFSGSGSGTDYTLTISSLEPEDAAVYYCQQWSSNPLTFGGGTKVEIKR
257

// fetch Relative activity compared with CNTO7160 given entry 5888-153-H1L1 (antibody, human IgG4 S228P, kappa, V domains shown) VH: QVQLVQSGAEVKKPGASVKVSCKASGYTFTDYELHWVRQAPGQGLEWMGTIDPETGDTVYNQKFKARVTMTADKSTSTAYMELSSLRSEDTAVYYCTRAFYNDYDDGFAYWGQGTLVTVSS VL: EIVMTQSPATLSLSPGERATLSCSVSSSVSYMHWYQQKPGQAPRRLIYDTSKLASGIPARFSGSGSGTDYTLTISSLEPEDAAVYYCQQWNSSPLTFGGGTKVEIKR
183
